Tested on: MRSA 33
Assay: MIC by agar incorporation method, MRSA 33
Assay type: cell-based, Methicillin Resistant Staphylococcus aureus
Parameters: unit not given here
Settings: Mueller Hinton agar, 10^4 CFU/spot, 24 hours
Please respond with reported In Vitro (MIC) MRSA 33 for every item in the list.
Write the number on its own, no unit after it.

**Q:** Record request: In Vitro (MIC) MRSA 33 value, item CC(=O)NC[C@H]1CN(c2ccc(N3CCN(Cc4ccc([N+](=O)[O-])n4C)CC3)c(F)c2)C(=O)O1 [Compound No. 12]
**A:** 4

**Q:** Record request: In Vitro (MIC) MRSA 33 value, item O=C(CCl)NC[C@H]1CN(c2ccc(N3CCN(Cc4cc(Br)c([N+](=O)[O-])s4)CC3)c(F)c2)C(=O)O1 [Compound No. 48]
**A:** 4

**Q:** Record request: In Vitro (MIC) MRSA 33 value, item CC(=O)NC[C@H]1CN(c2ccc(N3CCN(C(=O)c4ccc(N)s4)CC3)c(F)c2)C(=O)O1 [Compound No. 34]
**A:** 8

**Q:** Record request: In Vitro (MIC) MRSA 33 value, item CC(=O)NC[C@H]1CN(c2ccc(N3CCC(CN(C)Cc4ccc([N+](=O)[O-])o4)CC3)c(F)c2)C(=O)O1 [Compound No. 95]
**A:** 1

**Q:** Record request: In Vitro (MIC) MRSA 33 value, item CC(=O)NC[C@H]1CN(c2ccc(N3CCN(Cc4cc(C#N)c([N+](=O)[O-])s4)CC3)c(F)c2)C(=O)O1 [Compound No. 6]
**A:** 2

**Q:** Record request: In Vitro (MIC) MRSA 33 value, item CC(=O)NC[C@H]1CN(c2ccc(N3CCC(N=Cc4ccc([N+](=O)[O-])o4)CC3)c(F)c2)C(=O)O1 [Compound No. 85]
**A:** 4

**Q:** Record request: In Vitro (MIC) MRSA 33 value, item O=C(CF)NC[C@H]1CN(c2ccc(N3CCC(Cc4ccc([N+](=O)[O-])o4)CC3)c(F)c2)C(=O)O1 [Compound No. 42]
**A:** 4

====

Please respond with reported In Vitro (MIC) MRSA 33 for every item in the list.
Tested on: MRSA 33
Experiment: MIC by agar incorporation method, MRSA 33
Assay type: cell-based, Methicillin Resistant Staphylococcus aureus
Parameters: unit not given here
Conditions: Mueller Hinton agar, 10^4 CFU/spot, 24 hours

**Q:** Record request: In Vitro (MIC) MRSA 33 value, item CC(=O)NC[C@H]1CN(c2ccc(N3CCN(C(=O)c4ccc([N+](=O)[O-])o4)CC3)c(F)c2)C(=O)O1
**A:** 0.25

**Q:** Record request: In Vitro (MIC) MRSA 33 value, item CC(=O)NC[C@H]1CN(c2ccc(N3CCN(C(=O)C=Cc4ccc([N+](=O)[O-])s4)CC3)c(F)c2)C(=O)O1
**A:** 0.5

**Q:** Record request: In Vitro (MIC) MRSA 33 value, item CC(=O)NC[C@H]1CN(c2ccc(N3CCCN(C(=O)c4ccc([N+](=O)[O-])s4)CC3)c(F)c2)C(=O)O1
**A:** 0.5

====

Please respond with reported In Vitro (MIC) S.aureus 25923 for every item in the list.
System: S.aureus ATCC 25923
Experiment: MIC by agar incorporation method, S.aureus 25923
Assay type: cell-based, Staphylococus aureus
Parameters: unit not given here
Settings: Mueller Hinton agar, 10^4 CFU/spot, 18 hours
Write the number on its own, no unit after it.

**Q:** Record request: In Vitro (MIC) S.aureus 25923 value, item CC(=O)NC[C@H]1CN(c2ccc(N3CCN(C(=O)c4ccc([N+](=O)[O-])o4)CC3C)c(F)c2)C(=O)O1 (stereo partly shown)
**A:** 2

**Q:** Record request: In Vitro (MIC) S.aureus 25923 value, item CC(=O)NC[C@H]1CN(c2ccc(N3CCN(C(=O)c4ccc([N+](=O)[O-])o4)CC3)c(F)c2)C(=O)O1
**A:** 0.5

**Q:** Record request: In Vitro (MIC) S.aureus 25923 value, item CC(=O)NC[C@H]1CN(c2ccc(N3CCN(Cc4ccoc4[N+](=O)[O-])CC3)c(F)c2)C(=O)O1
**A:** 8

**Q:** Record request: In Vitro (MIC) S.aureus 25923 value, item CC(=O)NC[C@H]1CN(c2ccc(N3CCCN(C(=O)c4ccc([N+](=O)[O-])s4)CC3)c(F)c2)C(=O)O1
**A:** 1

====

Tested on: S.aureus ATCC 25923
Assay: MIC by agar incorporation method, S.aureus 25923
Assay type: cell-based, Staphylococus aureus
Set-up: unit not given here
Details: Mueller Hinton agar, 10^4 CFU/spot, 18 hours
The label fulfilled is reserved for In Vitro (MIC) S.aureus 25923 strictly under 0.5; not fulfilled covers values equal to or above it.

**Q:** Lab log: compare recorded In Vitro (MIC) S.aureus 25923 with 0.5; is it strictly lower for CC(=O)NC[C@H]1CN(c2ccc(N3CCN(Cc4oc(C=O)cc4C)CC3)c(F)c2)C(=O)O1 ?
**A:** not fulfilled

**Q:** Lab log: compare recorded In Vitro (MIC) S.aureus 25923 with 0.5; is it strictly lower for CC(=O)NC[C@H]1CN(c2ccc(N3CCC(NCc4ccc([N+](=O)[O-])s4)CC3)c(F)c2)C(=O)O1 ?
**A:** not fulfilled

**Q:** Lab log: compare recorded In Vitro (MIC) S.aureus 25923 with 0.5; is it strictly lower for CC(=O)NC[C@H]1CN(c2ccc(N3CCN(C(=O)Cc4cccs4)C(C)C3)c(F)c2)C(=O)O1 (stereo partly shown) ?
**A:** not fulfilled

**Q:** Lab log: compare recorded In Vitro (MIC) S.aureus 25923 with 0.5; is it strictly lower for CC(=O)NC[C@H]1CN(c2ccc(N3CCN(C(=O)c4ccc([N+](=O)[O-])s4)CC3C)c(F)c2)C(=O)O1 (stereo partly shown) ?
**A:** fulfilled

**Q:** Lab log: compare recorded In Vitro (MIC) S.aureus 25923 with 0.5; is it strictly lower for CC(Cl)C(=O)NC[C@H]1CN(c2ccc(N3CCN(Cc4cc(Br)c([N+](=O)[O-])s4)CC3)c(F)c2)C(=O)O1 (stereo partly shown) ?
**A:** not fulfilled

====

System: MRSA 15187
Assay: MIC by agar incorporation method, MRSA 15187
Type: cell-based, Methicillin Resistant Staphylococcus aureus
Design: unit not given here
Settings: Mueller Hinton agar, 10^4 CFU/spot, 24 hours
Readout Type: In Vitro (MIC) MRSA 15187
Write the number on its own, no unit after it.

**Q:** Record request: In Vitro (MIC) MRSA 15187 value, item O=C(CF)NC[C@H]1CN(c2ccc(N3CCC(Cc4ccc([N+](=O)[O-])o4)CC3)c(F)c2)C(=O)O1
**A:** 2

**Q:** Record request: In Vitro (MIC) MRSA 15187 value, item CC(=O)NC[C@H]1CN(c2ccc(N3CCN(C(=O)c4occc4C)CC3)c(F)c2)C(=O)O1
**A:** 2

**Q:** Record request: In Vitro (MIC) MRSA 15187 value, item CC(=O)NC[C@H]1CN(c2ccc(N3CCC(CN(C)Cc4ccc([N+](=O)[O-])o4)CC3)c(F)c2)C(=O)O1 [Compound No. 95]
**A:** 1

**Q:** Record request: In Vitro (MIC) MRSA 15187 value, item CC(=O)NC[C@H]1CN(c2ccc(N3CCN(C(C)c4ccc([N+](=O)[O-])o4)CC3)c(F)c2)C(=O)O1 (some centres unmarked)
**A:** 1

**Q:** Record request: In Vitro (MIC) MRSA 15187 value, item CC(=O)NC[C@H]1CN(c2ccc(N3CCN(Cc4oc(C=O)cc4C)CC3)c(F)c2)C(=O)O1
**A:** 2

**Q:** Record request: In Vitro (MIC) MRSA 15187 value, item CC(=O)NC[C@H]1CN(c2ccc(N3CCN(Cc4oc([N+](=O)[O-])cc4C)CC3)c(F)c2)C(=O)O1
**A:** 2

**Q:** Record request: In Vitro (MIC) MRSA 15187 value, item CC(=O)NC[C@H]1CN(c2ccc(N3CCC(CN(C)Cc4ccc([N+](=O)[O-])o4)CC3)c(F)c2)C(=O)O1 [Compound No. 93]
**A:** 1

**Q:** Record request: In Vitro (MIC) MRSA 15187 value, item CCN(C(=O)c1ccc([N+](=O)[O-])o1)C1CCN(c2ccc(N3C[C@H](CNC(C)=O)OC3=O)cc2F)CC1
**A:** 1

**Q:** Record request: In Vitro (MIC) MRSA 15187 value, item CC(=O)NC[C@H]1CN(c2ccc(N3CCN(Cc4ccc([N+](=O)[O-])n4C)CC3)c(F)c2)C(=O)O1
**A:** 4

**Q:** Record request: In Vitro (MIC) MRSA 15187 value, item O=C(CCl)NC[C@H]1CN(c2ccc(N3CCN(Cc4cc(Br)c([N+](=O)[O-])s4)CC3)c(F)c2)C(=O)O1
**A:** 4

**Q:** Record request: In Vitro (MIC) MRSA 15187 value, item CC(=O)NC[C@H]1CN(c2ccc(N3CCN(Cc4cc(N(C)C)c([N+](=O)[O-])s4)CC3)c(F)c2)C(=O)O1
**A:** 4

**Q:** Record request: In Vitro (MIC) MRSA 15187 value, item CC(=O)NC[C@H]1CN(c2ccc(N3CCN(Cc4ccoc4[N+](=O)[O-])CC3)c(F)c2)C(=O)O1
**A:** 4

**Q:** Record request: In Vitro (MIC) MRSA 15187 value, item CC(=O)NC[C@H]1CN(c2ccc(N3CCN(C(=O)c4ccc([N+](=O)[O-])o4)CC3C)c(F)c2)C(=O)O1 (some centres unmarked)
**A:** 1
